# System: NOMO1
# MEASUREMENT PROTOCOL: cell viability relative to DMSO control; higher = less cytotoxic
# EXPERIMENTAL CONTEXT: RPMI 5 mM glucose + 10% dialyzed FBS; 48 h; 0.00702 µM
REPORTED METRIC: cell viability (%)
Your answer should be a plain number; it is taken to be in %.

NC(=O)Nc1sc(-c2ccc(F)cc2)cc1C(N)=O | 111
O=C([O-])C[C@H](O)C[C@H](O)/C=C/c1c(C2CC2)nc2ccccc2c1-c1ccc(F)cc1 | 110
C=C1C(=O)OC(CCCCCCCC)C1C(=O)O (centres undefined) | 113
C[N]1C=C(C2=CC=CC=C12)\C3=C(\C(=O)NC3=O)C4=C[N](C5CCN(CC5)CC6=NC=CC=C6)C7=C4C=CC=C7 | 110
O=C(Nc1nnc(-c2ccco2)o1)c1cc(-c2ccccc2)nc2ccccc12 | 107
N#C/C(=C\c1ccc(O)c(O)c1)C(=O)NCc1ccccc1 | 110

[ask] Request the reported cell viability associated with OC1=CC2=C(C=C1)C(=O)\C(=C(O2)\C3=CC(=C(O)C=C3)O)O
[reply] 101

[ask] Request the reported cell viability associated with N[C@H]2CN(CC12CC1)c3c(F)cc4c(c3Cl)[N@@](C=C(C4=O)C(=O)O)C5C[C@H]5F (some centres undefined)
[reply] 91.2

[ask] Request the reported cell viability associated with C[C@H]1C[C@H]2[C@@H]3CC[C@](O)(C(=O)CO)[C@@]3(C)C[C@H](O)[C@@H]2[C@@]\4(C)/C=C\C(=O)\C=C14
[reply] 91.4
